System: tyrosinamino transferase (TAT)
experiment-description: induction of tyrosinamino transferase (TAT) in liver homogenates
Format: in vivo
stated-conditions: mice, 30 mg/kg, 8 hours after administration, vs untreated control
Procedure: One of the most frequent undesirable effects of a glucocorticoid therapy is the so-called “steroid diabetes” [cf. […] The activity of this enzyme can be determined photometrically from liver homogenates and represents a good yardstick of the undesirable metabolic actions of the glucocorticoids. To measure the TAT induction, the animals are sacrificed 8 hours after the test substances are administered, the livers are removed, and the TAT activity in the homogenate is measured. […]
result-type: Induction Factor for TAT with 30 mg/kg

[
  {
    "molecule": "Cc1noc(=O)c2ccc(NC(=O)C(O)(CC3(c4cc(F)ccc4O)CCC3)C(F)(F)F)cc12 (single isomer, unassigned) [Example 29]",
    "Induction Factor for TAT with 30 mg/kg": 2.0
  },
  {
    "molecule": "Cc1noc(=O)c2ccc(NC(=O)C(O)(CC(C)(C)c3cc(Br)ccc3O)C(F)(F)F)cc12 (single isomer, unassigned; (+)) [Example 7]",
    "Induction Factor for TAT with 30 mg/kg": 2.4
  },
  {
    "molecule": "Cc1noc(=O)c2ccc(NC(=O)C(O)(CC(C)(C)c3cccc4ccoc34)C(F)(F)F)cc12 (single isomer, unassigned) [Example 23]",
    "Induction Factor for TAT with 30 mg/kg": 1.0
  }
]

(P) Cc1noc(=O)c2ccc(NC(=O)C(O)(CC(C)(C)c3cccc4c3OCO4)C(F)(F)F)cc12 (single isomer, unassigned; (+)) [Example 2]
(Q) C[C@]12C=CC(=O)C=C1CC[C@@H]1[C@@H]2[C@@H](O)C[C@@]2(C)[C@H]1CC[C@]2(O)C(=O)CO [Prednisolone, reference compound]
Hi team, can someone confirm which has the larger Induction Factor for TAT with 30 mg/kg: P or Q ? Thanks. Give the label of your selection.
Q
(Q: 8.0, P: 2.4)
